Origin of values: PubChem BioAssay (NCI)

System: A549 NSCLC
ASSAY: NCI tumour cell line growth inhibition, 48 h
*1 amine or outer side, *2 acyl side, *3 side chain or, on linkers, in order; H or OH if unused. Where a SMILES comes first, the peptide text is derived from it. The star is where a group is joined. γGlu = O=C(O)[CH](CCC(=O)[*:2])N[*:1]; NHOH = ON*
OBSERVED_PROPERTY: TGI

Completed entries (count: 3):
COMPOUND	SYSTEM_TESTED	OBSERVED_PROPERTY	REPORTED_RESULT
COc1ccc(C2c3cc4c(cc3OC(N3CCOCC3)C2C)OCO4)cc1OC (configuration not stated)	A549 NSCLC	TGI	> 85 µM
O=c1c2ccccc2c(=O)n2n1-c1cccc(c1)CSSCc1cccc-2c1	A549 NSCLC	TGI	> 100 µM
NC(CCC(=O)NC(CCC(=O)NO)C(=O)NCC(=O)O)C(=O)O (configuration not stated) (γGlu-Glu(NHOH)-Gly-OH; configuration not given here)	A549 NSCLC	TGI	> 100 µM

Provide the reported TGI of each entry below, same order.
1. CCOc1ccc2c(c1)[n+]([O-])c(C(N)=O)c(N)[n+]2[O-]
2. O=C(O)CSC1=NCCN1
3. COc1cccc2c1C(=O)c1c(O)c3c(c(O)c1C2=O)C[C@@](O)(/C(C)=N/NC(=O)c1cccc([N+](=O)[O-])c1)C[C@@H]3OC1CC(N)C(O)C(C)O1 (some centres not stated)
4. [O-]c1ccccc1C=NCCN=Cc1ccccc1[O-].[O]=[U+2]=[O]
5. CC1=NC2(C(=O)O)C3(C(=O)O)N=C(C)OC3(C(F)(F)F)C2(C(F)(F)F)O1 (configuration not stated)

1: > 100 µM; 2: > 100 µM; 3: 11.8 µM; 4: > 100 µM; 5: > 100 µM

----------
Assign TGI to each entry below.
Test system: SR leukemia
ASSAY: NCI tumour cell line growth inhibition, 48 h

> print(dat)
                                   compound  observed.property  reported.result
1  CCOC(=O)c1ccc(N2C(=O)/C(=C/c3ccc(N(CCC#N)CCC#N)cc3)N=C2c2cc([N+](=O)[O-])ccc2Cl)cc1                TGI         > 100 µM

Provide the reported TGI of each entry below, same order.
1. C/C(=N/NC(=S)N1CCCCCC1)c1cccc(/C(C)=N\NC(=S)N2CCCCCC2)n1
2. COc1ccc(CC(C)NCC(O)c2ccc(O)c(NC=O)c2)cc1 (configuration not stated)
3. Clc1cccc(-c2cc(-c3ccc4c(c3)OCCO4)[nH]n2)c1
4. Cc1cc2c(cc1Cl)SSc1cc(Cl)c(C)cc1S(=O)(=O)Nc1nc(N)nn1C(O)n1nc(N)nc1NS2(=O)=O
5. C=CCn1c(SCC(=O)Nc2ccc(C(=O)/C=C/c3cc(OC)c(OC)c(OC)c3)cc2)nnc1-c1cc(OC)c(OC)c(OC)c1
6. COc1ccc(/C=C2\C(=O)N(C(=O)c3ccc(NC(C)=O)cc3)N=C2C)cc1OC

5.84 µM
> 100 µM
98.3 µM
> 10 µM
> 100 µM
> 100 µM

----------
Tested on: DU-145 prostate
ASSAY: NCI tumour cell line growth inhibition, 48 h
OBSERVED_PROPERTY: TGI

Completed entries (count: 2):
> print(dat)
                                   compound  reported.result
1   CC1OC1C(=O)P(=O)(O)O (stereo not given)         > 100 µM
2  CC(C)OC(=O)Nc1c([N+](=O)[O-])cc(C(F)(F)F)cc1[N+](=O)[O-]         > 100 µM

Provide the reported TGI of each entry below, same order.
1. CCOP(=O)(OCC)/C(C#N)=C/c1nc[nH]c1C
2. COc1cc(O)c2c(=O)c3cccc(C)c3[nH]c2c1
3. CC(C)(Sc1cc(C(C)(C)C)c(O)c(C(C)(C)C)c1)Sc1cc(C(C)(C)C)c(O)c(C(C)(C)C)c1

1. > 100 µM
2. > 10 µM
3. > 100 µM

----------
Test system: U251 CNS
OBSERVED_PROPERTY: GI50

Completed entries (count: 4):
> print(dat)
                            chemical.string  system.tested  observed.property  reported.result
1     CN(C)CCN1C(=O)c2cccc3cc(N)cc(c23)C1=O       U251 CNS               GI50          2.85 µM
2            CCCCCCCCCCCC1=NC(C)(C)CN1C(C)C       U251 CNS               GI50           3.4 µM
3    CCOC(=O)c1sc2nc(=S)[nH]c(NC(N)=S)c2c1C       U251 CNS               GI50          17.2 µM
4  N#Cc1cnc2ccc(NCc3cnc[nH]3)cc2c1Nc1ccc(F)c(Cl)c1       U251 CNS               GI50          8.96 µM

Now look at this entry.
Tell me the measured GI50 of COc1ccc2c(c1[N+](=O)[O-])CC[C@@H]1[C@@H]2CC[C@]2(C)C(=O)CC[C@@H]12 , please.
476 µM

----------
Assign TGI to each entry below.
Tested on: NCI/ADR-RES ovarian
ASSAY: NCI tumour cell line growth inhibition, 48 h

Completed entries (count: 2):
> print(dat)
                            chemical.string  observed.property  reported.result
1  N#Cc1cnc2ccc(NCc3cnc[nH]3)cc2c1Nc1ccc(F)c(Cl)c1                TGI         > 100 µM
2  Cc1c2ccccc2c(/C=N/NC(=O)CSCC(=O)N/N=C/c2c3ccccc3c(C)c3ccccc23)c2ccccc12                TGI         > 100 µM

Tell me the measured TGI of CN(C)c1ccc(-c2c(C#N)c(-c3ccccc3)n(NS(=O)(=O)c3ccccc3)c(=O)c2C#N)cc1 , please.
> 100 µM

----------
System: SF-268 CNS
ASSAY: NCI tumour cell line growth inhibition, 48 h
Assign TGI to each entry below.

Provide the reported TGI of each entry below, same order.
1. CCOC(=O)c1nc(SC)sc1NC(=O)c1ccc(OC)cc1
2. O=C(Nc1ccc(Nc2ccc3c(c2)C(=O)c2ccccc2C3=O)c2c1C(=O)c1ccccc1C2=O)c1ccccc1

> 100 µM
> 100 µM

----------
Tested on: OVCAR-3 ovarian
ASSAY: NCI tumour cell line growth inhibition, 48 h
Assign TGI to each entry below.
One number for each entry, in µM.

Completed entries (count: 3):
> print(dat)
                                   compound  observed.property  unit.of.measurement  reported.result
1  CCCN1CCC(Oc2cc(Nc3nc(Nc4cccc(F)c4C(N)=O)c4cc[nH]c4n3)c(OC)cc2Cl)CC1                TGI                   µM             7.99
2  CC(=O)Nc1ccc(CC[C@H]2CCC/C=C/[C@@H]3C[C@H](O)C[C@H]3[C@H](O)/C=C/C(=O)O2)cc1                TGI                   µM            0.533
3  CCCCCCc1cc2cc(C(=O)Nc3nc(C45CC6CC(CC(C6)C4)C5)cs3)c(=O)oc2cc1O                TGI                   µM             39.4

Now look at this entry.
Give TGI (OVCAR-3 ovarian) of the following compound: CCCCCCCCCCCCCOCCOCCOCCCCC(O)CCCCCCCCCC1=C[C@H](C)OC1=O (some centres undefined)
44.2

----------
System: SK-MEL-28 melanoma
ASSAY: NCI tumour cell line growth inhibition, 48 h
OBSERVED_PROPERTY: TGI

Completed entries (count: 5):
> print(dat)
                                   compound  observed.property  reported.result
1   CC1COS(=O)N1c1ccccc1 (stereo not given)                TGI         > 100 µM
2        C[N+](C)(N)Cc1nc(-c2ccc(Cl)cc2)no1                TGI         > 100 µM
3  CC1=NN(c2ccccc2)C(=O)/C1=C1\SC(c2ccccc2)(c2ccccc2)c2ccccc21                TGI         > 100 µM
4             CCC(=O)N1C(=S)SC[C@H]1C(=O)OC                TGI         > 100 µM
5  COC(=O)C12C(=O)CC3CCC1C32C(=O)OC (stereo not given)                TGI         > 100 µM

Provide the reported TGI of each entry below, same order.
1. CCCCCOC(=O)c1c(C)[nH]c(/C=C2\N=C(c3ccc[nH]3)C=C2OC)c1C
2. OC(c1ccccc1)c1c(-c2ccccc2)[nH]c(-c2ccccc2)c1C(O)c1ccccc1 (stereo not given)
3. COP(=O)(OC)[C@@](O)(c1ccccc1)[C@@H](O)[C@H](O)c1ccccc1
4. COc1cc(OC)c(-n2[nH]c(=O)n(C)c2=O)c(OC)c1
5. CCN(CC)C1=Nc2ccccc2-n2ccnc2C1
6. CSC(=Nc1ccc([N+](=O)[O-])cc1C#N)NC(=O)c1ccccc1
7. Cc1ccccc1NC(=O)C(=O)C(C1OC(=O)c2ccccc21)[N+](=O)[O-] (stereo not given)

["1.25 µM", "12.1 µM", "> 100 µM", "> 100 µM", "> 100 µM", "> 100 µM", "> 100 µM"]

Provide the reported TGI of each entry below, same order.
1. CCO/C(O)=c1/s/c(=C2/SC(=S)N(c3ccc(C)cc3)C2=O)n(-c2ccccc2)c1=N
2. CCOc1ccc2c(c1)[n+]([O-])c(C(N)=O)c(N)[n+]2[O-]
3. NC(=O)N/N=C(\Cc1cc(=O)oc2cc(O)ccc12)C(=O)Nc1ccccc1C(N)=O
4. CCCCCCCCCCCC(c1ccccc1)[N+](C)(C)C (stereo not given)
5. CN1CCN(c2n[nH]c(=O)c3c2nnn3Cc2ccccc2)CC1
6. CCN(CC)C(=O)c1cccc2c(OC)ccc(OC)c12
7. O=C(c1ccccc1)[C@H]1Nc2ccc(Cl)cc2[C@H]2c3ccccc3O[C@H]21
8. O=c1[nH]nc(-c2ccc3ccccc3c2)[nH]1

1. > 76.5 µM
2. > 100 µM
3. > 100 µM
4. 3.31 µM
5. > 100 µM
6. > 100 µM
7. 25.8 µM
8. > 100 µM
